These data points were gathered from patent US11247985B2.

target: p97 ATPase WT (Homo sapiens (Human), UniProt P55072)
Sequence (P55072 whole entry): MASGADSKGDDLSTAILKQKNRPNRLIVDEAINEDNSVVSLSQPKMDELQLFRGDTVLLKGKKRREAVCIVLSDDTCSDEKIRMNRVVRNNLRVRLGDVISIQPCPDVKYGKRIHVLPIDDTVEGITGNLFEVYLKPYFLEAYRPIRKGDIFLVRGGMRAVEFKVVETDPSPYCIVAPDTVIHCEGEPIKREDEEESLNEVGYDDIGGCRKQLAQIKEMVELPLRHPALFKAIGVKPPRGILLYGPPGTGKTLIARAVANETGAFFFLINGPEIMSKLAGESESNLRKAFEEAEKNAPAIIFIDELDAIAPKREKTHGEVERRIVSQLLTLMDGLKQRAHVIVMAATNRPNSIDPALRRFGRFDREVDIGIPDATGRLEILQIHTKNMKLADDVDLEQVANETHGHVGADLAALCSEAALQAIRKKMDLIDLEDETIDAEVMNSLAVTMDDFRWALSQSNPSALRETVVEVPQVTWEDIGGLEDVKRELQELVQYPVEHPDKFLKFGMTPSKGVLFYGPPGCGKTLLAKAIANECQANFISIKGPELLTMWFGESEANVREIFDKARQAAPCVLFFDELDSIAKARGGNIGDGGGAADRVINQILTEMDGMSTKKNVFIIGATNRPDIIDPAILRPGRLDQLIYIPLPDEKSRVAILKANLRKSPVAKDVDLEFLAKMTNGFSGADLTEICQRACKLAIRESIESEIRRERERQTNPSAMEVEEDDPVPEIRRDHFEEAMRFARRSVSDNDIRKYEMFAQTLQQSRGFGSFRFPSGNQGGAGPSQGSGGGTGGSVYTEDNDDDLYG
test-summary: p97 ADP-Glo assay
Type: biochemical
measurement-conditions: Table 3; read-out: ADPGlo IC50
observable: IC50 (nM)

Below are worked cases with known answers.
c1cc(-c2cc3ccccc3[nH]2)cc(N2CCC(NCCN3CCCC3)CC2)c1 :: 880
CN1CCN(C2(CNC3CCN(c4cccc(-c5cc6cc(Cl)ccc6[nH]5)c4)CC3)CCC2)CC1 :: 110
CCN(CC)C(=O)CCNC1CCN(c2cccc(-c3cc4cc(F)ccc4[nH]3)c2)CC1 :: 670
CN1CCN(C2(CNC3CCN(c4cccc(-c5cc6cc(S(C)(=O)=O)ccc6[nH]5)c4)CC3)CCC2)CC1 :: 16000
COC(=O)CCNC1CCN(c2cccc(-c3cc4ccccc4[nH]3)c2)CC1 :: 1000

A. CC(C)N1CCN(CCNC2CCN(c3cccc(-c4cc5cc(F)cnc5[nH]4)c3)CC2)CC1
B. CC1CCN(CCNC2CCN(c3cccc(-c4cc5ccccc5[nH]4)c3)CC2)CC1
C. CN1CCN(C2(CNC3CCN(c4cccc(-c5cc6cc(F)ccc6[nH]5)c4)CC3)CCC2)CC1
D. CC(C)N1CCN(CCNC2CCN(c3cccc(NC(=O)OCc4ccccc4)c3)CC2)CC1
E. CC(C)N1CCN(C(=O)CCNC2CCN(c3cccc(-c4cc5ccccc5[nH]4)c3)CC2)CC1
Exam item: # rank_down: sort by IC50, max first Present the labels in the sequence the task asks for.
Marked response: A, D, B, E, C
(A: 5300 nM, D: 1700 nM, B: 800 nM, E: 140 nM, C: 15 nM)

----------
target: UniProtKB P55072
test-summary: p97 ADP-Glo assay
Type: biochemical
measurement-conditions: p97 ADP-Glo assay, differ from Table 2; read-out: ADP-Glo IC50
observable: IC50 (nM)
Write it as a number; the unit nM goes unstated.

Exam item: Give recorded IC50. `CC(C)N1CCN(CCNC2CCN(c3cccc(-c4cc5cc([N+](=O)[O-])ccc5[nH]4)c3)CC2)CC1`
Marked response: 40

----------
target: p97 ATPase WT (Homo sapiens (Human), UniProt P55072)
test-summary: p97 ADP-Glo assay
Format: biochemical
measurement-conditions: Table 3; read-out: ADPGlo IC50
pIC50: −log10 of the molar value.
observable: pIC50

Answered cases to consult:
c1cc(-c2cc3ccccc3[nH]2)cc(N2CCC(NCCN3CCOCC3)CC2)c1 :: 6.04
c1ccc(CNC2CCN(c3cccc(-c4cc5ccccc5[nH]4)c3)CC2)cc1 :: 6.02
Cc1c(-c2cc3ccccc3[nH]2)cccc1N1CCC(NCCN2CCN(C(C)C)CC2)CC1 :: 4.85

P. CC(C)N1CCN(CCC2CCN(c3cccc(-c4cc5ccccc5[nH]4)c3)CC2)CC1
Q. c1ccc(CCNC2CCN(c3cccc(-c4cc5ccccc5[nH]4)c3)CC2)nc1
R. COCCN1CCN(CCNC2CCN(c3cccc(-c4cc5ccccc5[nH]4)c3)CC2)CC1
Exam item: Hey, can you sort those molecules up there by pIC50, smallest first? Note for the reader: the ranking is given by listing the labels in the order requested.
Marked response: P, Q, R
(P: 5.22, Q: 6.14, R: 6.52)

I. Cc1ccc(N2CCC(NCCN3CCN(C(C)C)CC3)CC2)cc1-c1[nH]c2ccccc2c1C
II. CC(C)N1CCN(CCNC2CCN(c3ccc4c(c3)-c3[nH]c5ccccc5c3CC4)CC2)CC1
Exam item: Choose between I and II : whose measured pIC50 value is numerically larger? Respond with the label that goes with your answer.
Marked response: II
(II: 6.43, I: 4.64)
